Target: Pim-1 (Homo sapiens)
Construct: purchased Invitrogen PV3503
Sequence (P11309 whole entry): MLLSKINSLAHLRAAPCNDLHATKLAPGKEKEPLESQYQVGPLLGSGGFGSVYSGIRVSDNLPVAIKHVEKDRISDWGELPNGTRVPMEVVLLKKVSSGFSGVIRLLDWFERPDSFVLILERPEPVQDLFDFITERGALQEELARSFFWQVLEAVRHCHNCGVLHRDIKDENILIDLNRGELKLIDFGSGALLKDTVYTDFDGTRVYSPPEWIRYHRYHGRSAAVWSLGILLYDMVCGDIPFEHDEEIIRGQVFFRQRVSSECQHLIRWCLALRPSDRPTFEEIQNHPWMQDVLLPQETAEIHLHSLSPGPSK
Assay: Pim-1 kinase assay (Pim enzyme assays, Example A)
Assay type: biochemical
Settings: 1 mM ATP; read-out: Pim1 IC50
Method: Pim-1 and Pim-3 kinase assays-20 μL reactions were run in white 384 well polystyrene plates dotted with 0.8 μL compound/DMSO in the assay buffer (50 mM Tris, pH 7.5, 0.01% Tween-20, 5 mM mgCl2, 0.01% BSA, 5 mM DTT), containing 0.05 μM Biotin-labeled BAD peptide substrate (AnaSpec 62269), 1 mM ATP, and […] (Pim-1, Invitrogen PV3503) or […] (Pim-3, Millipore 14-738) enzyme for 1 h at 25° C. […]
The entries below are paired with their reported IC50.

Recorded IC50 of N#Cc1ccccc1-c1ccc2cc(N)c(C(=O)Nc3cnccc3N3CCC[C@H](N)C3)nc2c1 , please.
≤ 100 nM

Item: CCc1ccc2cc(N)c(C(=O)Nc3cnc(OC)cc3N3CCC[C@H](N)C3)nc2c1
> 40 nM

Item: CC(F)c1ccc2cc(N)c(C(=O)Nc3cnccc3N3CCC[C@H](N)C3)nc2c1 (stereo partly shown)
≤ 100 nM

Next:
Recorded IC50 of CCc1ccc2cc(N)c(C(=O)Nc3cnc4c(c3N3CCC[C@H](N)C3)CCC4O)nc2c1 (single isomer, unassigned) [22 isomer 2] , please.
≤ 100 nM

----------
molecular target: Pim2 (Homo sapiens, UniProt Q9P1W9); construct: purchased Invitrogen PV3649; experiment: Pim-2 kinase assay (Pim enzyme assays, Example A); type: biochemical; conditions: 1 mM ATP; read-out: Pim2 IC50
Sequence (Q9P1W9 whole entry): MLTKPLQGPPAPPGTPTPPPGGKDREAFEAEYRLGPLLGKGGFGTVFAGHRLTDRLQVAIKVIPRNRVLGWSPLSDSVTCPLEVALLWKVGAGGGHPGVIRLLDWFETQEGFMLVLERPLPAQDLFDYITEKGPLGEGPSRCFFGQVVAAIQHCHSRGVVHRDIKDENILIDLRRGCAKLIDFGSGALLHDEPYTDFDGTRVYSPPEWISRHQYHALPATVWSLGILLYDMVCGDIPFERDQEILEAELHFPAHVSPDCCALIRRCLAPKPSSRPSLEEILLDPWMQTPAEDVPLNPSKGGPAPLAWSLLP
value type: IC50

Recorded IC50 of Nc1cc2ccc(C(O)c3ccccc3)cc2nc1C(=O)Nc1cnccc1N1CCC[C@H](N)C1 (some centres unmarked) , please.
> 2000 nM

Item: Cn1nccc1-c1ccc2cc(N)c(C(=O)Nc3cnccc3N3CCC[C@H](N)C3)nc2c1
1000 to 10000 nM

Item: CCc1ccc2cc(N)c(C(=O)Nc3cnc(OC)cc3N3CCC[C@H](N)C3)nc2c1
> 2000 nM

Item: Nc1cc2ccc(N3CCOCC3)cc2nc1C(=O)Nc1cnccc1N1C[C@@H](N)C[C@@H](C(F)(F)F)C1
100 to 1000 nM

Item: CCc1cc2nc(C(=O)Nc3cnccc3N3CCC[C@H](N)C3)c(N)cc2cc1F
100 to 1000 nM

Next:
Recorded IC50 of Nc1cc2ccccc2nc1C(=O)Nc1cnccc1N1CCC[C@H](N)C1 , please.
100 to 1000 nM

Item: C[C@H]1CN(c2ccncc2NC(=O)c2nc3cc(N4CCOCC4)ccc3cc2N)C[C@@H](N)[C@@H]1O
100 to 1000 nM

Item: COC(=O)N[C@@H]1[C@H](N)CN(c2ccncc2NC(=O)c2nc3cc(N4CCOCC4)ccc3cc2N)C[C@@H]1C
1000 to 10000 nM

----------
target: Pim2 (Homo sapiens, UniProt Q9P1W9); construct: purchased Invitrogen PV3649; experiment: Pim-2 kinase assay (Pim enzyme assays, Example A); format: biochemical; conditions: 1 mM ATP; read-out: Pim2 IC50
value type: IC50

Recorded IC50 of CN(C)Cc1ccc2cc(N)c(C(=O)Nc3cnccc3N3CCC[C@H](N)C3)nc2c1 , please.
> 2000 nM

----------
biological target: Pim2 (Homo sapiens, UniProt Q9P1W9); construct: purchased Invitrogen PV3649; test: Pim-2 kinase assay (Pim enzyme assays, Example A); format: biochemical; settings: 1 mM ATP; read-out: Pim2 IC50
pIC50: −log10 of the molar value.
The entries below are paired with their reported pIC50.

Recorded pIC50 of COC(=O)N[C@@H]1[C@H](N)CN(c2ccncc2NC(=O)c2nc3cc(C4CCOCC4)ccc3cc2N)C[C@@H]1C [Example 61] , please.
6.00 to 7.00

Item: C[C@H]1CN(c2ccncc2NC(=O)c2nc3cc(N4CCOCC4=O)ccc3cc2N)C[C@@H](N)[C@@H]1O [Example 51]
5.00 to 6.00

Next:
Recorded pIC50 of C[C@H]1CN(c2ccncc2NC(=O)c2nc3cc(N4CCCCC4=O)ccc3cc2N)C[C@@H](N)[C@@H]1O [Example 49] , please.
6.00 to 7.00

Item: COC(=O)N[C@@H]1[C@H](N)CN(c2ccncc2NC(=O)c2nc3cc(C4CCN(C)CC4)ccc3cc2N)C[C@@H]1C [Example 62]
5.00 to 6.00

----------
The entries below are paired with their reported IC50.
target: Pim2 (Homo sapiens); construct: purchased Invitrogen PV3649; assay: Pim-2 kinase assay (Pim enzyme assays, Example A); format: biochemical; conditions: 1 mM ATP; read-out: Pim2 IC50

Recorded IC50 of C[C@H]1CN(c2ccncc2NC(=O)c2nc3cc(N4CCN(C)CC4)ccc3cc2N)C[C@@H](N)[C@H]1n1ccnn1 , please.
> 2000 nM

Item: CCc1ccc2cc(N)c(C(=O)Nc3cnccc3N3C[C@@H](N)[C@H](O)[C@@H](C)C3)nc2c1
≤ 100 nM

Alright, here's another compound for you.
Recorded IC50 of CCc1ccc2cc(N)c(C(=O)Nc3cnccc3C3CCCC(N)C3)nc2c1 (stereo not drawn) , please.
100 to 1000 nM

----------
The entries below are paired with their reported IC50.
target: Pim2 (Homo sapiens); construct: purchased Invitrogen PV3649; test: Pim-2 kinase assay (Pim enzyme assays, Example A); type: biochemical; conditions: 1 mM ATP; read-out: Pim2 IC50

Recorded IC50 of Nc1cc2ccc(C3CCOCC3)cc2nc1C(=O)Nc1cnccc1N1C[C@@H](N)C[C@@H](C(F)(F)F)C1 , please.
≤ 0.1 µM

Item: CCc1ccc2cc(N)c(C(=O)Nc3cnc4c(c3N3CCC[C@H](N)C3)CCO4)nc2c1
0.1 to 1 µM

Item: CC(F)c1ccc2cc(N)c(C(=O)Nc3cnccc3N3CCC[C@H](N)C3)nc2c1 (stereo partly shown)
0.1 to 1 µM

Item: NC(=O)c1ccccc1-c1ccc2cc(N)c(C(=O)Nc3cnccc3N3CCC[C@H](N)C3)nc2c1
> 2 µM

Item: CCc1ccc2cc(N)c(C(=O)Nc3cnccc3N3C[C@@H](N)[C@@H](n4ccnn4)[C@@H](C)C3)nc2c1
0.1 to 1 µM

Next:
Recorded IC50 of CCc1ccc2cc(N)c(C(=O)Nc3cnc4c(c3N3CCC[C@H](N)C3)CCC4O)nc2c1 (single isomer, unassigned) [22 isomer 2] , please.
> 2 µM

Item: Nc1cc2ccc(CN3CCCC3)cc2nc1C(=O)Nc1cnccc1N1CCC[C@H](N)C1
> 2 µM

----------
The entries below are paired with their reported pIC50.
molecular target: Pim2 (Homo sapiens, UniProt Q9P1W9); construct: purchased Invitrogen PV3649; assay: Pim-2 kinase assay (Pim enzyme assays, Example A); type: biochemical; conditions: 1 mM ATP; read-out: Pim2 IC50
pIC50: −log10 of the molar value.

Answered examples (7):
Recorded pIC50 of C[C@H]1CN(c2ccncc2NC(=O)c2nc3cc(C4CCN(C)CC4)ccc3cc2N)C[C@@H](N)[C@@H]1O , please.
≥ 7.00

Item: C[C@H]1CN(c2ccncc2NC(=O)c2nc3cc(N4CCN(C)C(=O)C4)ccc3cc2N)C[C@@H](N)[C@H]1n1ccnn1
< 5.70

Item: NC(=O)c1cccc(F)c1-c1ccc2cc(N)c(C(=O)Nc3cnccc3N3CCC[C@H](N)C3)nc2c1
< 5.70

Item: Nc1cc2ccc(C3CCOCC3)cc2nc1C(=O)Nc1cnccc1N1CCC[C@H](N)C1
6.00 to 7.00

Item: C[C@@H]1C[C@H](N)CN(c2ccncc2NC(=O)c2nc3cc(C4CCOCC4)ccc3cc2N)C1
≥ 7.00

Item: Nc1cc2ccc(Br)cc2nc1C(=O)Nc1cnccc1N1CCC[C@H](N)C1
6.00 to 7.00

Item: C[C@@H]1C[C@H](N)CN(c2ccncc2NC(=O)c2nc3cc(N4CCN(C)CC4)ccc3cc2N)C1
≥ 7.00

Alright, here's another compound for you.
Recorded pIC50 of CC(O)c1ccc2cc(N)c(C(=O)Nc3cnccc3N3CCC[C@H](N)C3)nc2c1 (some centres unmarked) , please.
6.00 to 7.00

----------
The entries below are paired with their reported pIC50.
Target: Pim2 (Homo sapiens, UniProt Q9P1W9)
Construct: purchased Invitrogen PV3649
Experiment: Pim-2 kinase assay (Pim enzyme assays, Example A)
Type: biochemical
Conditions: 1 mM ATP; read-out: Pim2 IC50
Experimental: Pim-2 kinase assay—20 μL reactions were run in white 384 well polystyrene plates dotted with 0.8 μL compound/DMSO in the assay buffer (50 mM Tris, pH 7.5, 0.01% Tween-20, 5 mM mgCl2, 0.01% BSA, 5 mM DTT), containing 0.05 μM Fluorescein-labeled CREBtide peptide substrate (Invitrogen PV3508), 1 mM ATP, and 1 nM enzyme (Invitrogen PV3649) for 2 h at 25° C. […] After 30 min. incubation at room temperature, plates were read on a PHERAstar FS plate reader (BMG Labtech).
pIC50: −log10 of the molar value.

Recorded pIC50 of C[C@H]1CN(c2ccncc2NC(=O)c2nc3cc(C4CCN(C)CC4)ccc3cc2N)C[C@@H](N)[C@H]1n1ccnn1 , please.
5.00 to 6.00

Item: C[C@H]1CN(c2ccncc2NC(=O)c2nc3cc(N4CCN(C)CC4)ccc3cc2N)C[C@@H](N)[C@@H]1O
≥ 7.00

Item: COC(=O)N[C@@H]1[C@H](N)CN(c2ccncc2NC(=O)c2nc3cc(N4CCN(C)CC4)ccc3cc2N)C[C@@H]1C
5.00 to 6.00

Alright, here's another molecule for you.
Recorded pIC50 of C[C@@H]1C[C@H](N)CN(c2ccncc2NC(=O)c2nc3cc(N4CCNC(=O)C4)ccc3cc2N)C1 , please.
6.00 to 7.00
